system.tested: T1, PCSK9-D374Y-BP15-His6 (human, UniProt Q8NBP7 31-692, biotin on the BP15 biotin receiving peptide)
T1 construct: also called PCSK9-Y; mutant PCSK9
method: ELISA, bio-PCSK9-Y captured on streptavidin plate
assay.readout: EC50 (µg/mL)
# value in µg/mL; strip the unit string

Observe how each entry below is paired with its result.
binder: h001-1 (antibody, human IgG1, V domains shown, Variable regions only; also called h001_VH.1 + h001_VL.1) VH: QVQLVQSGAEVKKPGASVKVSCKASGYTFTDYWMHWVRQAPGQGLEWMGYINPSSGFTKYHQNFKDRVTMTRDTSISTAYMELSRLRSDDTAVYYCARQYDYDEDWYFDVWGQGTTVTVSS VL: DIQMTQSPSSLSASVGDRVTITCKSSQSLLNSRTRKNFLAWYQQKPGKAPKLLIYWASTRESGVPSRFSGSGSGTDFTLTISSLQPEDFATYYCKQSFNLFTFGQGTKLEIK
EC50 [µg/mL]: 0.0132

binder: h001-18 (antibody, human IgG1, V domains shown, Variable regions only; also called h001_VH.1D + h001_VL.1A) VH: QVQLVQSGAEVKKPGASVKVSCKASGYTFNDYWMHWVRQAPGQGLEWMGYINPSSGFTKYHQNFKDRVTMTADKSISTAYMELSRLTSDDTAVYYCARQYDYDEDWYFDVWGQGTTVTVSS VL: DIQMTQSPSSLSASVGDRVTITCKSSQSLLNSRTRKNFLAWYQQKPGKAPKLLIYWASTRESGVPDRFSGSGSGTDFTLTISSLQPEDFATYYCKQSFNLFTFGQGTKLEIK
EC50 [µg/mL]: 0.0191

Any idea what EC50 was measured for h001-2 (antibody, human IgG1, V domains shown, Variable regions only; also called h001_VH.1 + h001_VL.1A) VH: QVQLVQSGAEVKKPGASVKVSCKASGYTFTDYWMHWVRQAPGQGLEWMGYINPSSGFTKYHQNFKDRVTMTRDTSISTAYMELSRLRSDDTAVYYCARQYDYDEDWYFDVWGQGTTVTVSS VL: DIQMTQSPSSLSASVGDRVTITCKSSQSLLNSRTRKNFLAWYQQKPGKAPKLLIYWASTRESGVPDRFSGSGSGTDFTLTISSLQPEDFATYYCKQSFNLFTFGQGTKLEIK ?
0.0157

Any idea what EC50 was measured for h001-16 (antibody, human IgG1, V domains shown, Variable regions only; also called h001_VH.1C + h001_VL.1C) VH: QVQLVQSGAEVKKPGASVKVSCKASGYTFNDYWMHWVRQAPGQGLEWMGYINPSSGFTKYHQNFKDRVTMTRDTSISTAYMELSRLTSDDTAVYYCARQYDYDEDWYFDVWGQGTTVTVSS VL: DIVMSQSPSSLSASVGDRVTITCKSSQSLLNSRTRKNFLAWYQQKPGKSPKLLIYWASTRESGVPDRFSGSGSGTDFTLTISSLQPEDFATYYCKQSFNLFTFGQGTKLEIK ?
0.0111

Any idea what EC50 was measured for Ch-001 (antibody, V domains shown, also called chimeric antibody) VH: QVHLQQSGAELAKPGASVKLSCKASGYTFNDYWMHWVKERPGQGLEWIGYINPSSGFTKYHQNFKDKATLTADKSSSTAYMQLSSLTYDDSAVYYCARQYDYDEDWYFDVWGTGTTVTVSS VL: DIVMSQSPSSLAVSAGEKVTMSCKSSQSLLNSRTRKNFLAWYQQKPGQSPKLLIYWASTRESGVPDRFTGRGSGTDFTLTISSVQAEDLAVYYCKQSFNLFTFGSGTKLEIK ?
0.0132
